Biological target: Human PPARα LBD fusion protein (Homo sapiens, UniProt Q07869)
Construct: a.a; 167-468)
Sequence (Q07869 167-468): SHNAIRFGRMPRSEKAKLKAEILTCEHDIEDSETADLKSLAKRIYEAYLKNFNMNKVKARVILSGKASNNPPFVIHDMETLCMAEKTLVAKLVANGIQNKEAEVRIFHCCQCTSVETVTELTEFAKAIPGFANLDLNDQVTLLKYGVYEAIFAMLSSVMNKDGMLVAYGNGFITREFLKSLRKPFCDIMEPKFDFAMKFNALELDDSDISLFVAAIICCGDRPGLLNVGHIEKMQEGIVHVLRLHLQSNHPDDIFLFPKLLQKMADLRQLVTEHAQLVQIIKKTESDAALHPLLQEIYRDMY
Assay: Transcription activation potential, GAL4 luciferase reporter in C3A cells
Assay type: cell-based
Details: 30 μM
Overview of reported transcription activation potential (luciferase) ± standard deviation across a group of compounds:
readout_label: transcription activation potential (luciferase) ± standard deviation (LCPS)

{"columns": ["compound", "measured"],
 "data": [
  ["Cc1cccc(C)c1COc1cccc(CC(=O)O)c1 [Compound CF]", 40.2],
  ["Cc1cccc(C)c1COc1cccc(C(=O)CCC(=O)O)c1 [Compound BI]", 55.4],
  ["Cc1cccc(C)c1COc1cccc(C(=O)O)c1 [Compound CG, 3-(2,6-Dimethylbenzyloxy)benzoic acid]", 38.2],
  ["Cc1cccc(C)c1COc1cccc(CCCC(=O)O)c1 [CE]", 10.67]
]}
